experiment summary: Plasma pharmacokinetics after intraperitoneal injection in mice
Type: in vivo
test context: mouse, male mice, 5 mg/kg IP
experimental readout: CL/F (mL/min/kg)

{"structure": "Cc1cc(C)c(Oc2ccc3cnccc3n2)c(-c2ccccc2)c1", "experimental readout": "CL/F", "unit descriptor": "mL/min/kg", "test result": 371}

----------
experiment summary: Plasma pharmacokinetics after intraperitoneal injection in mice
Type: in vivo
test context: mouse, male mice, 5 mg/kg IP
experimental readout: AUC(0-t) (ng·h/mL)

{"compound": "Cc1cc(C)c(Oc2ccc3cnccc3n2)c(-c2ccccc2)c1 [Example 71]", "experimental readout": "AUC(0-t)", "test result": 222}

----------
experiment summary: Plasma pharmacokinetics after intraperitoneal injection in mice
Type: in vivo
test context: mouse, Table 4, female mice, 5 mg/kg IP
experimental readout: Cmax

{"structure": "COc1ccc(-c2ccc(C(F)(F)F)cc2Oc2ccc3cnccc3n2)cc1", "experimental readout": "Cmax", "test result": "269 ng/mL"}

----------
experiment summary: Plasma pharmacokinetics after intraperitoneal injection in mice
Assay type: in vivo
test context: mouse, Table 4, male mice, 5 mg/kg IP
experimental readout: Tmax

{"structure": "COc1ccc(-c2ccc(C(F)(F)F)cc2Oc2ccc3cnccc3n2)cc1", "experimental readout": "Tmax", "test result": "15 min"}

----------
experiment summary: Plasma pharmacokinetics after intraperitoneal injection in mice
Type: in vivo
test context: mouse, female mice, 5 mg/kg IP

{"compound": "Cc1cc(C)c(Oc2ccc3cnccc3n2)c(-c2ccccc2)c1 [Example 71]", "CL/F, mL/min/kg": 484}

----------
experiment summary: Plasma pharmacokinetics after intraperitoneal injection in mice
Assay type: in vivo
test context: mouse, male mice, 5 mg/kg IP

{"structure": "Cc1cc(C)c(Oc2ccc3cnccc3n2)c(-c2ccccc2)c1", "unit descriptor": "ng·h/mL", "AUC(0-inf)": 225}

----------
experiment summary: Plasma pharmacokinetics after intraperitoneal injection in mice
Format: in vivo
test context: mouse, Table 4, male mice, 5 mg/kg IP

{"structure": "COc1ccc(-c2ccc(C(F)(F)F)cc2Oc2ccc3cnccc3n2)cc1", "CL/F": "238 mL/min/kg"}

----------
experiment summary: Plasma pharmacokinetics after intraperitoneal injection in mice
Assay type: in vivo
test context: mouse, female mice, 5 mg/kg IP
Procedure: Example B: Pharmacokinetics of Selected Compounds Mice were injected intraperitoneally with (5 mg/kg) of the compound of Example 71 or Example 78 and plasma samples were taken at intervals of […], 0.25 hr, 0.5 hr. 1.0 hr, 3.0 hr, and 6.0 hr post-administration in order to analyze the pharmacokinetic profile of these compounds. […]
experimental readout: AUC(0-inf) (µg·h/mL)

{"structure": "Cc1cc(C)c(Oc2ccc3cnccc3n2)c(-c2ccccc2)c1", "experimental readout": "AUC(0-inf)", "test result": 0.172}

----------
experiment summary: Plasma pharmacokinetics after intraperitoneal injection in mice
Assay type: in vivo
test context: mouse, Table 4, female mice, 5 mg/kg IP
experimental readout: Tmax (min)

{"structure": "COc1ccc(-c2ccc(C(F)(F)F)cc2Oc2ccc3cnccc3n2)cc1", "experimental readout": "Tmax", "unit descriptor": "min", "test result": 15}

----------
experiment summary: Plasma pharmacokinetics after intraperitoneal injection in mice
Assay type: in vivo
test context: mouse, Table 4, male mice, 5 mg/kg IP
experimental readout: half-life (min)

{"structure": "COc1ccc(-c2ccc(C(F)(F)F)cc2Oc2ccc3cnccc3n2)cc1", "unit descriptor": "min", "test result": 33}
